target-or-system: PKM2 (Homo sapiens)
Sequence (P14618 whole entry): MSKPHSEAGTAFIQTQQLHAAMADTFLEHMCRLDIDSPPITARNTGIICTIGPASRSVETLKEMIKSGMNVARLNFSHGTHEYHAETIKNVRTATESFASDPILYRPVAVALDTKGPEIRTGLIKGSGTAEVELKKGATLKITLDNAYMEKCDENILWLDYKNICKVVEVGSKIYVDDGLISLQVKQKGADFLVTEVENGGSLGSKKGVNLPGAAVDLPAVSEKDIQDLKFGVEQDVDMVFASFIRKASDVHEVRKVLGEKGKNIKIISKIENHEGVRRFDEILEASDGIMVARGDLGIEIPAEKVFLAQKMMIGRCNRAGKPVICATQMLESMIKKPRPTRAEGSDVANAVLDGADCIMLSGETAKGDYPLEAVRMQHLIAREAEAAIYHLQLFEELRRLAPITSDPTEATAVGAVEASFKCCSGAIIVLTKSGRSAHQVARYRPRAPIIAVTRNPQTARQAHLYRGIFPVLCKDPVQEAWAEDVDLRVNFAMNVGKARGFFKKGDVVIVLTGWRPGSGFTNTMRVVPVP
test: PKM2 activation biochemical assay (AC50 / max. response vs fructose 1,6-bisphosphate)
test-parameters: % maximum response in a biochemical assay as compared with Fructose 1,6-bisphosphate
measured-metric: Max. Resp. (%)
Write down the numeric answer in % and omit the unit.

Past entries and their recorded results:
CN1CCN(CCN(Cc2ccccc2F)C(=O)c2cc(C(F)(F)F)n[nH]2)CC1 | 42
O=C(c1cc(C(F)(F)F)n[nH]1)N(CCC1CCOC1)Cc1ccccc1Cl (centres unmarked) | 110
O=C(c1cc(C(F)(F)F)n[nH]1)N(Cc1ccccc1F)CC1CCOC1 (centres unmarked) | 68
O=C1CCC(CCN(Cc2ccccc2F)C(=O)c2cc(C(F)(F)F)n[nH]2)CC1 | 105
O=C(c1cc(C(F)(F)F)n[nH]1)N(CCN1CCOCC1)Cc1ccccc1Cl | 100

Reported Max. Resp. (%) for "CCN(CC)CCN(Cc1ccccc1C(C)C)C(=O)c1cc(C(F)(F)F)n[nH]1" was 85

"CO[C@H]1CC[C@H](N(Cc2ccccc2Cl)C(=O)c2cc(C(F)(F)F)n[nH]2)CC1" yielded Max. Resp. (%) of 100

The compound listed as Nc1ccccc1CN(CCC1CCS(=O)(=O)C1)C(=O)c1cc(C(F)(F)F)n[nH]1 (centres unmarked) has a reported Max. Resp. (%) of 43
